A collection of compounds and their measured Ki
# Target entity: human GABAA α1β3γ2 receptor (Homo sapiens (Human), UniProt P14867+P18507)
# Assay comment: Radioligand binding assay, competition for [3H]Flumazenil, γ2-containing GABAA subtype α1β3γ2

>  <Compound>
O=c1ccn2c(n1)CN=C(c1ccccc1F)c1c-2ccc(Cl)c1Cl [Example 1]

>  <Ki / nM>
716

$$$$
>  <Compound>
C[C@@H]1N=C(c2c(F)cccc2F)c2c(ccc(Br)c2Cl)-n2cc(Br)c(=O)nc21 [Example 16]

>  <Ki / nM>
1570

$$$$
>  <Compound>
O=c1ccn2c(n1)CN=C(c1c(F)cccc1F)c1c-2ccc(Cl)c1Cl [Example 2]

>  <Ki / nM>
462

$$$$
>  <Compound>
Cc1ccc2c(c1Cl)C(c1c(F)cccc1F)=N[C@@H](C)c1nc(=O)c(C)cn1-2 [Example 8]

>  <Ki / nM>
1240

$$$$
>  <Compound>
O=c1nc2n(cc1Br)-c1ccc(Br)c(Cl)c1C(c1c(F)cccc1F)=NC2 [Example 15]

>  <Ki / nM>
1970

$$$$
>  <Compound>
C[C@@H]1N=C(c2c(F)cccc2F)c2c(ccc(Br)c2Cl)-n2ccc(=O)nc21 [Example 13]

>  <Ki / nM>
607

$$$$
>  <Compound>
O=c1ccn2c(n1)CN=C(c1c(F)cccc1F)c1c-2ccc(Br)c1Cl [Example 12]

>  <Ki / nM>
322

$$$$
>  <Compound>
C[C@@H]1N=C(c2c(F)cccc2F)c2c(ccc(Cl)c2Br)-n2cc(Br)c(=O)nc21 [Example 23]

>  <Ki / nM>
3000

$$$$

---

# Target entity: human GABAA α2β2γ1 receptor (Homo sapiens (Human), UniProt P47869+Q8N1C3)
# Assay comment: Radioligand binding assay, competition for [3H]RO7239181, γ1-containing GABAA subtype α2β2γ1
# Cond: membranes of HEK293F cells, [3H]RO7239181 20-30 nM, mean of two determinations; read-out: Ki h-GABAA α2β2γ1

>  <Smiles structure>
C[C@@H]1N=C(c2c(F)cccc2F)c2c(ccc(C(F)(F)F)c2Cl)-n2cc(C(=O)NC3CC3)c(=O)nc21

>  <Target entity>
human GABAA α2β2γ1 receptor (Homo sapiens (Human), UniProt P47869+Q8N1C3)

>  <Ki [µM]>
0.033

$$$$
>  <Smiles structure>
CCOCCc1cn2c(nc1=O)CN=C(c1c(F)cccc1F)c1c-2ccc(Cl)c1Cl

>  <Target entity>
human GABAA α2β2γ1 receptor (Homo sapiens (Human), UniProt P47869+Q8N1C3)

>  <Ki [µM]>
0.0303

$$$$
>  <Smiles structure>
CNC(=O)c1cn2c(nc1=O)[C@H](C)N=C(c1c(F)cccc1F)c1c-2ccc(C(F)(F)F)c1Cl

>  <Target entity>
human GABAA α2β2γ1 receptor (Homo sapiens (Human), UniProt P47869+Q8N1C3)

>  <Ki [µM]>
0.0308

$$$$
>  <Smiles structure>
CCOCCc1cn2c(nc1=O)[C@H](C)N=C(c1c(F)cccc1F)c1c-2ccc(Cl)c1Cl

>  <Target entity>
human GABAA α2β2γ1 receptor (Homo sapiens (Human), UniProt P47869+Q8N1C3)

>  <Ki [µM]>
0.0233

$$$$
